- RUN DESCRIPTION: NCI Yeast Anticancer Drug Screen. Data for the bub3 strain (AID 167)
- SETUP CONDITIONS: S. cerevisiae bub3 mutant strain, at 1.2 µM, hits give high values
- Description: Growth inhibition of yeast strains with defined genetic alterations is measured as a screen for potential anti-cancer activity. Selected strains with alterations in DNA damage repair or cell cycle control were exposed to compounds and growth inhibition was measured relative to vehicle treated controls. The strain used in this assay is bub3
The panel holds about 79,000 compounds, 15% with a hit somewhere; the sample as a whole holds those more often.
MEASURE NAME: growth inhibition (%)
Give the value in % but do not write % after it.

COMPOUND	ENDPOINT RESULT
Cc1cc(OCc2ccccc2)ccc1[N+](=O)[O-]	-16

Prompt: Sample `Cc1cccc(/C=N/NC(=S)N(C)CCc2ccccn2)n1` — what was its growth inhibition?
Response: 56

Prompt: Consider next the compound CC1CCC2(C(=O)O)CCC3(C)C(=CCC4C5(C)CC(O)C(O)C(C)(CO)C5C(O)CC43C)C2C1C (stereo unspecified) in the same way.
Response: -5

Prompt: Consider next the compound `O=NN(CCCl)C(=O)NCCCl` in the same way.
Response: 2

Prompt: Consider next the compound `O=[N+]([O-])c1cccc2nc3ccccc3c(NCCc3cccc[n+]3[O-])c12` in the same way.
Response: -12

Prompt: Consider next the compound `CC(C)(O)c1ccccc1C(c1ccccc1)c1ccccc1` in the same way.
Response: -2

Prompt: Consider next the compound `CCc1[nH]nc(C(N)=O)c1N=NN(C)C` in the same way.
Response: -9

Prompt: Consider next the compound `Nc1ccc(CCl)cc1Cc1c(O)ccc2ccccc12` in the same way.
Response: -4

Prompt: Consider next the compound `O=[N+]([O-])c1cc(S(=O)(=O)Nc2ccccc2)ccc1Cl` in the same way.
Response: 11

Prompt: Consider next the compound `Cc1ccc(Nc2n[nH]c(=S)s2)cc1` in the same way.
Response: 1

Prompt: Consider next the compound `O=C(NCCCCCN1CCC2(CCCCC2)CC1)C(C1CCCCC1)C1CCCCC1` in the same way.
Response: -2

Prompt: Consider next the compound `O/N=C/C1c2ccccc2-c2ccccc21` in the same way.
Response: -6

Prompt: Consider next the compound `COc1cc(NCc2ccc3nc(N)nc(N)c3c2C)cc(OC)c1OC` in the same way.
Response: -13

Prompt: Consider next the compound `CC(=O)Oc1ccc(C(=O)c2ccccc2)c(O)c1` in the same way.
Response: -36

Prompt: Consider next the compound Nc1nc2c(c(=O)[nH]1)NC(CCNc1ccc(C(=O)O)cc1)CN2 (stereo unspecified) in the same way.
Response: 2

Prompt: Consider next the compound `O=C(/C=N/O)Nc1cc(Cl)c(Cl)cc1Cl` in the same way.
Response: -32

Prompt: Consider next the compound `CCN(CC)N=Nc1c(C(N)=O)n[nH]c1C` in the same way.
Response: -15

Prompt: Consider next the compound CC(=O)OCC1OC(O[C@H]2C=C[C@@H](C(=O)OCc3ccccc3)n3c(=O)n(-c4ccccc4)c(=O)n32)C(OC(C)=O)C(OC(C)=O)C1OC(C)=O (stereo partly specified) in the same way.
Response: -30

Prompt: Consider next the compound `S=c1[nH]c2c(Cl)c(Cl)c(Cl)c(Cl)c2[nH]1` in the same way.
Response: -5
